Tested on: SF-268 CNS
ASSAY: NCI tumour cell line growth inhibition, 48 h
Recorded TGI values for a group of compounds are listed next.

# COMPOUND, UNIT ABBREV, QUALIFIER SIGN, TGI
data = [
    ("O=C(Nc1ccc(-n2ccc3c(NC(=O)c4ccccc4)nccc32)cc1)Nc1cccc(C(F)(F)F)c1", "µM", "=", 30.2),
    ("C/C(=N/NC(=O)C[n+]1ccccc1)C(CN(CC(C)C)CC(C)C)C(=O)Nc1ccc(C)cc1C (configuration not stated)", "µM", ">", 100),
    ("CCN(CC)CCC(CNc1ccnc2cc(Cl)ccc12)c1ccccc1 (configuration not stated)", "µM", "=", 41),
    ("COc1ccccc1/C=C/C1=C(C)CCC(c2ccccc2OC)C1C (configuration not stated)", "µM", ">", 73),
    ("C[N+]12CCN(c3ccccc31)c1ccccc12", "µM", ">", 10),
    ("CCOC(=O)N(C)C(=C(F)F)C(F)(F)F", "µM", "=", 97.4),
    ("COc1cc2c(cc1O)CN1CCC23C=C[C@@H](O)CC13 (some centres not stated)", "µM", ">", 100),
    ("Cc1cc2ccc(OC(=O)c3ccc(N=C(N)N)cc3)cc2oc1=O", "µM", "=", 73.8),
    ("NC(=O)CC1(O)C=C(Br)C(=O)C(Br)=C1", "µM", "=", 21.2),
    ("COc1cc(OC)c2c(=O)c3c([N+](=O)[O-])cccc3n(C)c2c1", "µM", ">", 100),
    ("O=C(N/N=C(/c1nc2ccc([N+](=O)[O-])cc2[nH]c1=O)C(O)c1ccc([N+](=O)[O-])cc1)c1ccncc1 (configuration not stated)", "µM", ">", 100),
    ("Cc1ccc(NC(=O)Nc2c(Cl)cccc2Cl)cn1", "µM", ">", 100),
    ("CCOC(=O)CCC(NC(=O)c1ccc(N=Cc2nc3ccccc3nc2-c2ccccc2)cc1)C(=O)OCC (configuration not stated)", "µM", ">", 100),
    ("O=c1cc(NNc2ccccc2F)[nH]c(=O)[nH]1", "µM", "=", 35.2),
    ("CCCCCCCCCCCCCCCCCCOc1ccccc1CC(=O)OCC[N+](CC)(CC)CC", "µM", "=", 6.32),
    ("CCN1CCN(c2nc3ccccc3nc2C(=O)c2ccc(OC)c(OC)c2)CC1", "µM", ">", 100),
    ("CCOC(=O)/C(C#N)=C1\\SS/C(=C(/C#N)C(=O)OCC)S1", "µM", "=", 41),
    ("COc1cc(/C=C/c2ccc(Br)cc2)cc(OC)c1OC", "µM", "=", 31.2),
    ("COc1ccc(S(=O)(=O)N[C@H](C(=O)O)c2ccccc2)cc1", "µM", ">", 100),
    ("Cc1nc(N)c(-c2ccccc2)s1", "µM", ">", 100),
    ("CCN(CC)c1ccc(C2NC(=O)c3ccccc3N2)cc1 (configuration not stated)", "µM", ">", 100),
    ("CCc1cc2c(c3c1CCCC3)CC1(Cc3ccc(C(=O)OC)cc3C1)C2 (configuration not stated)", "µM", ">", 100),
]

* * *

Recorded GI50 values for a group of compounds are listed next.
Tested on: BT-549 breast
ASSAY: NCI tumour cell line growth inhibition, 48 h

# COMPOUND, GI50
rows = [
    ("O=C(Nc1cccc(-n2cc(-c3ccncc3)c(-c3ccc(O)c(Cl)c3)n2)c1)c1cc(C(F)(F)F)cc(C(F)(F)F)c1", "4.34 µM"),
    ("COc1ccccc1/C=C/C1=C(C)CCC(c2ccccc2OC)C1C (configuration not stated)", "0.27 µM"),
    ("COc1ccc2nc(-c3ccccc3)cc(Nc3cccc(C(C)=O)c3)c2c1", "18.2 µM"),
    ("OCc1ccc(N2CCc3cc(F)ccc3C2)cc1Cl", "15.1 µM"),
    ("NC1=NC(=O)/C(=C/c2ccc3ncccc3c2)S1", "> 18.8 µM"),
    ("Cc1ccc(-c2nc(N3CCNCC3)c3oc(-c4ccccc4)nc3n2)cc1", "13.8 µM"),
    ("CC(c1ccccc1)[C@@H](C(=O)Nc1ccc(I)cc1F)N1C(=O)N[C@H](c2ccc(OC[C@H](O)CO)cc2)C1=O (some centres not stated)", "9.17 µM"),
]

* * *

Tested on: RPMI-8226 leukemia
ASSAY: NCI tumour cell line growth inhibition, 48 h
Recorded TGI values for a group of compounds are listed next.
ASSAY METRIC: TGI

# COMPOUND, TEST VALUE
data = [
    ("CCN(CC)CCCNc1ccc([N+](=O)[O-])c2nc3ccc(OC)cc3c(N)c12", "4.81 µM"),
    ("O=C(Cn1c(=O)oc2ccc(C(=O)c3ccc(F)cc3)cc21)c1ccccc1", "> 100 µM"),
    ("COc1cc(C2c3cc4c(cc3OC(NCCc3ccccc3)C2C)OCO4)cc(OC)c1OC (stereo unspecified)", "14.7 µM"),
    ("COc1ccc2c(c1)[n+](=O)c(C(=O)C/C(=N/NC(=O)C[N+](C)(C)C)C(=O)Nc1cccc(C)c1C)c(C)n2O", "> 100 µM"),
    ("C[C@@H]1CCC2C(C)(C)C(/C=C\\C=O)C3(C)OC213 (stereo partly specified)", "84.5 µM"),
    ("NC(=O)NNCc1c(-c2ccccc2)no[n+]1[O-]", "> 100 µM"),
    ("C=C1C(=O)O[C@H]2C/C(C)=C/CC[C@]3(C)CCC[C@](C)(CC[C@@H]12)O3", "20 µM"),
    ("Nc1ncnc2c1ncn2-c1ccc([N+](=O)[O-])cn1", "> 100 µM"),
    ("CC(C)CCC[C@@H](C)C1CCC2[C@@H]3CCC4C[C@@H](NS(C)(=O)=O)CC[C@]4(C)C3CC[C@@]21C (stereo partly specified)", "> 100 µM"),
    ("CC12C(=C(C#N)C(=N)N1c1ccc(Cl)c(Cl)c1)C=C(O)CC2SCCS(=O)(=O)O (stereo unspecified)", "> 100 µM"),
    ("COc1ccccc1-n1c(N)c2c(C)c(-c3ccccc3)[nH]c2nc1=S", "> 100 µM"),
]

* * *

Tested on: MOLT-4 leukemia
ASSAY: NCI tumour cell line growth inhibition, 48 h; in the data active means GI50 below about 0.43 µM; inactive means the rest
Labels: active, inactive

# STRUCTURE SMILES STRING, CATEGORY
rows = [
    ("Clc1ccc2ncc(-c3cccc(NC4CNC4)n3)n2c1", "inactive"),
    ("ClCc1ccc(Cn2cnc3c(Cl)ncnc32)cc1", "inactive"),
    ("C=C1C(=O)O[C@H]2[C@H]1CC/C(Cn1cc(-c3cccc(Cl)c3)nn1)=C\\CC[C@@]1(C)O[C@@H]21", "active"),
]

* * *

Recorded TGI values for a group of compounds are listed next.
System: UO-31 renal
ASSAY: NCI tumour cell line growth inhibition, 48 h

# COMPOUND, TGI
records = [
    ("C[N+]1(CCC(=O)c2ccccc2)CCC2CCC(C2)C1 (stereo unspecified)", "> 100 µM"),
    ("CCc1cc2c(c3c1CCCC3)CC1(Cc3ccc(C(=O)OC)cc3C1)C2 (stereo unspecified)", "> 100 µM"),
    ("CC(=O)Nc1ccc(C(=O)NN2C(=O)C(Cl)C2c2cccc([N+](=O)[O-])c2)cc1 (stereo unspecified)", "> 100 µM"),
    ("Cc1cc(C)c2c(=O)n(CC(O)CN3CCN(CCOCCO)CC3)sc2n1 (stereo unspecified)", "47.8 µM"),
    ("COc1ccccc1/C=C/C1=C(C)CCC(c2ccccc2OC)C1C (stereo unspecified)", "> 100 µM"),
    ("Cc1nc(C)c(N2CCN(C(=O)O)CC2)c(=O)[nH]1", "> 100 µM"),
    ("COc1ccc(-c2nn(-c3ccc(NC(=O)c4cc(Cl)cc(Cl)c4)cc3)cc2-c2ccncc2)cc1Cl", "> 100 µM"),
    ("CCCCCC[C@@H](C)Nc1nc2ccccc2c2occc12", "17.2 µM"),
    ("COC1CC(C)([N+](=O)[O-])C(O)C(C)O1 (stereo unspecified)", "> 100 µM"),
    ("COc1ccc(-c2[nH]nc(N)c2-c2cc(OC)c3c(c2)OCO3)cc1", "69.7 µM"),
    ("CCCCCCCCCC(CCCC(O)CC(=O)O)OC1OC(COC2OC(C)C(OC(C)=O)C(O)C2O)C(O)C(O)C1OC1OC(CO)C(O)C(O)C1OC1OC(C)C(OC(=O)CC(C)C)C(O)C1O (stereo unspecified)", "> 35 µM"),
    ("C/C(=N/O)c1ccc2c(c1)/C(=N/O)c1ccccc1-2", "38.2 µM"),
    ("COc1cc(COC(=O)N2CC=CC2C(=O)O)c([N+](=O)[O-])cc1OC (stereo unspecified)", "> 100 µM"),
    ("Cc1ccc(-c2nc(N3CCNCC3)c3oc(-c4ccccc4)nc3n2)cc1", "2.78 µM"),
    ("CCOC(=O)c1cnc2c(ccc3[nH]cccc32)c1=O", "> 100 µM"),
    ("O=c1c2ccccc2nc(-c2ccccc2Cl)n1-c1nnc(C(F)(F)F)s1", "11.6 µM"),
    ("CN=C(N)N=Nc1c(O)[nH]c2ccccc12", "> 100 µM"),
    ("CC(NC1CCCC[C@H]1O)c1ccccc1 (stereo partly specified)", "> 100 µM"),
    ("Cc1cc(C)c2c(c1)N[S@@](=O)S2", "39.4 µM"),
    ("CC(C)CCC[C@@H](C)C1CCC2[C@@H]3CCC4C[C@@H](NS(C)(=O)=O)CC[C@]4(C)C3CC[C@@]21C (stereo partly specified)", "> 100 µM"),
    ("CCCCCCCCCCCCCCCCCCOc1ccccc1CC(=O)OCC[N+](CC)(CC)CC", "14.5 µM"),
]
